In this section, each of the compounds is paired with its reported normalised response.
system: BT-549; assay: normalised response (% of control), CellTiter-Glo; higher = more viable cells (100 = DMSO, 0 = benzethonium chloride kill control); conditions: incubation time: 72 h
Measured attribute: normalised response

>>> result("CC(=O)c1c(C)c2cnc(Nc3ccc(N4CCNCC4)cn3)nc2n(C2CCCC2)c1=O [Palbociclib] (100 nM)")
"97.9%"
>>> result("CC(C)(C)c1cnc(CSc2cnc(NC(=O)C3CCNCC3)s2)o1 [SNS-032] (100 nM)")
"20.3%"
>>> result("CC(=O)N(O)CCCCCNC(=O)CCC(=O)N(O)CCCCCNC(=O)CCC(=O)N(O)CCCCCN [Deferoxamine] (100 nM)")
"100%"
>>> result("Nc1ncn([C@@H]2O[C@H](CO)[C@@H](O)[C@H]2O)c(=O)n1 [Azacitidine] (100 nM)")
"101%"
>>> result("COc1cc2c(cc1O)CC[C@@H]1[C@@H]2CC[C@]2(C)[C@@H](O)CC[C@@H]12 [2-methoxyestradiol] (100 nM)")
"95.5%"
